# System: Anopheles gambiae
# Assay text: Tarsal contact toxicity in Anopheles gambiae G3 (MRA-112) assessed as mortality measured at 24 hrs by filter paper assay
# Type: functional
Below: a set of entries, each annotated with reported LC50.
Record the result as a number with its unit.

Below, 5 compounds whose answers are already recorded.
CC(C)CCc1cc(=O)n(C(=O)N(C)C)o1	73 µg/mL
CCCC(C)c1cc(OC(=O)N(C)CC)no1 (stereo unspecified)	410 µg/mL
CN(C)C(=O)n1oc(C2CCC2)cc1=O	79 µg/mL
CCC(CC)c1cc(=O)n(C(=O)N(C)C)o1	38 µg/mL
CN(C)C(=O)Oc1cc(CCC2CC2)on1	191 µg/mL

Observed LC50, Anopheles gambiae, CC(C)c1cc(OC(=O)N(C)C)no1 : 84 µg/mL
